assay: qHTS assay to identify small molecule antagonists of the sonic hedgehog signaling (Shh) pathway (AID 1259369); settings: NIH/3T3 Gli1-Luc reporter, Shh antagonist, luminescence 24 h; series mostly up to 92.4 µM; note: nearly all actives have a fitted effect of over 45% in size
Results filed as inconclusive are left out. Activity calls are given as the source filed them. Calls come from the whole dose curve.
Use one of these outcomes when replying: label 1 for active, label 0 for inactive

These solved cases illustrate the format of a correct answer.
In: Which result was noted for this molecule in the test: "CC12CCC(CC1)C(C)(C)O2"
Out: label 0

In: Which result was noted for this molecule in the test: "Nc1c(N=Nc2ccc(-c3ccc(N=Nc4cc(S(=O)(=O)O)c5ccccc5c4N)cc3)cc2)cc(S(=O)(=O)O)c2ccccc12"
Out: label 0

In: Which result was noted for this molecule in the test: "OC[C@H]1O[C@H](O[C@]2(CCl)O[C@H](CCl)[C@@H](O)[C@@H]2O)[C@H](O)[C@@H](O)[C@H]1Cl"
Out: label 0

In: Which result was noted for this molecule in the test: "O=C1O[C@H]([C@@H](O)CO)C(O)=C1O"
Out: label 0

In: Which result was noted for this molecule in the test: "O=c1[nH]cnc2c1ncn2[C@H]1CC[C@@H](CO)O1"
Out: label 0

In: Which result was noted for this molecule in the test: "CC(=O)CCC(=O)O"
Out: label 0

In: Which result was noted for this molecule in the test: CC(C)NCC(O)c1ccc(O)c(O)c1 (stereo unspecified)
Out: label 0

In: Which result was noted for this molecule in the test: "CC(O)(P(=O)(O)O)P(=O)(O)O"
Out: label 0

Further cases:
In: Which result was noted for this molecule in the test: "COc1ccc(OC(F)(F)F)cc1CN[C@H]1CCCN[C@H]1c1ccccc1"
Out: label 1

In: Which result was noted for this molecule in the test: "NC(=O)n1c(O)c(C(=O)c2cccs2)c2cc(Cl)ccc21"
Out: label 1

In: Which result was noted for this molecule in the test: "O=c1[nH]cc(F)c(=O)[nH]1"
Out: label 0

In: Which result was noted for this molecule in the test: "Cc1c(C(=O)O)c(O)cc2c1C(=O)c1c(O)c([C@@H]3O[C@H](CO)[C@@H](O)[C@H](O)[C@H]3O)c(O)c(O)c1C2=O"
Out: label 0

In: Which result was noted for this molecule in the test: "CCCCCCCC(=O)OCC(COC(=O)CCCCCCC)OC(=O)CCCCCCC"
Out: label 0

In: Which result was noted for this molecule in the test: "Oc1ccccc1"
Out: label 0

In: Which result was noted for this molecule in the test: "CCCCOC(=O)c1ccc(O)cc1"
Out: label 0

In: Which result was noted for this molecule in the test: "CC1(C)S[C@@H]2[C@H](NC(=O)[C@H](N)c3ccccc3)C(=O)N2[C@H]1C(=O)O"
Out: label 0

In: Which result was noted for this molecule in the test: "NC(CO)(CO)CO"
Out: label 0

Origin of the recorded values: PubChem BioAssay (Tox21)
